- TEST_TARGET: T1, his-tagged human CDH6 extracellular region protein (hCDH6 ECD-his) (human, UniProt P55285 19-615)
- T1 construct: also called Human CDH6-his; hCDH6-his; not shown: his tag
- T1 sequence: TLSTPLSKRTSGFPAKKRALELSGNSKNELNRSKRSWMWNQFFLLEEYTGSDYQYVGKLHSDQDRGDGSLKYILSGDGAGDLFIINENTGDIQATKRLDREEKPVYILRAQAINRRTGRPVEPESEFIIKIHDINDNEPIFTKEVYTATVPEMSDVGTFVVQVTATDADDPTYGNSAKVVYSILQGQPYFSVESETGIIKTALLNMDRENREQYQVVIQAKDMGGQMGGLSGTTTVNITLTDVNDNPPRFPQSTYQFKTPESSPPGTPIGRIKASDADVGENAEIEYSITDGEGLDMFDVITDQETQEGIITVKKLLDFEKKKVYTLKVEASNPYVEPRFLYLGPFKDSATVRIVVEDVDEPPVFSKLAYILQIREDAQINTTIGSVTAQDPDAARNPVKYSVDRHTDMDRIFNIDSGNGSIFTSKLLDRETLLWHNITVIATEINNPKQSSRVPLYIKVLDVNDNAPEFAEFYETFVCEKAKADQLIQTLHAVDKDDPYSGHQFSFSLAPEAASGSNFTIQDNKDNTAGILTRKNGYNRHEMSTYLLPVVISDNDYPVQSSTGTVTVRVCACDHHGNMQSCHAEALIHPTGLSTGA
- PROTOCOL_DETAILS: ELISA, coated antigen
binders and their reported pEC50
Conceptually, pEC50 converts a concentration in mol/L into minus its log10.

{"BINDER": "hCDH6-1-H2L1 (antibody, V domains shown, Humanized) VH: EVQLVQSGAEVKKPGSSVKVSCKASGYTFTNYWMHWVRQAPGQGLEWMGDIDPSHSETHYTQKFKDRVTITVDKSTSTAYMELSSLRSEDTAVYYCARGDLGRFDYWGQGTTVTVSS VL: DIVMTQSPDSLAVSLGERATINCRASESVSIHGTHLMHWYQQKPGQPPKLLIYAASNLESGVPDRFSGSGSETDFTLTISSLQAEDVAVYYCQQSFEDPWTFGGGTKVEIK", "READOUT_LABEL": "pEC50", "NUMBER": 10.34}
{"BINDER": "hCDH6-14-H1L2 (antibody, V domains shown, Humanized) VH: EVQLVQSGAEVKKPGASVKVSCKASGYTFTDNYINWVRQAPGQRLEWMGWIYPGTGNSYYNEKFKGRVTITVDTSASTAYMELSSLRSEDTAVYYCASSYGDSFDYWGQGTTVTVSS VL: DIQMTQSPSSLSASVGDRVTITCRASQDIRNYLNWYQQKPGGAPKLLISYTSRLHSGVPSRFSGSGSGTDFTFTISSLQPEDIATYYCQQYSQLPWTFGGGTKVEIK", "READOUT_LABEL": "pEC50", "NUMBER": 9.89}

Pending binder:
// query pEC50 value for entry hCDH6-1-H1L1 (antibody, V domains shown, Humanized) VH: EVQLVQSGAEVKKPGSSVKVSCKASGYTFSNYWMHWVRQAPGQGLEWMGDIDPSHSETHYTQKFKDRVTITVDKSTSTAYMELSSLRSEDTAVYYCARGDLGRFDYWGQGTTVTVSS VL: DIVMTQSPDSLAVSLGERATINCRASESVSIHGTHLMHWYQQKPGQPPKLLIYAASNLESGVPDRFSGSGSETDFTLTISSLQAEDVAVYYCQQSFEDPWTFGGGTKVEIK 10.60
